molecular target: N-terminal HiBiT tagged BCL6 (Homo sapiens, UniProt P41182); construct: expressed in transfected cells; host or cells: HT1080 (ATCC CCL-121), stably transduced with lentivirus pLV-UBC-N-HiBiT-BCL6-PGK-puro; assay: HiBiT based degradation assay; assay type: cell-based; conditions: HT1080 cells expressing N-terminal HiBiT tagged BCL6; 5 hours of incubation; BCL6 degradation normalized with DMSO control
test.readout: Ymin (5 hr)

[[record]]
compound = "CNC(=O)COc1cc2cc(Nc3nc(N4CCC([C@@H](C)N5CCN(c6cccc7c(C8CCC(=O)NC8=O)nn(C)c67)CC5)CC4)ncc3Cl)cnc2n(C(C)C)c1=O (single isomer, unassigned) [Compound 193a]"
test_readout = "Ymin (5 hr)"
observed = "+++ (30% ≤ Ymin < 50%)"

[[record]]
compound = "CNC(=O)COc1cc2cc(Nc3nc(N4CCC(CN5[C@H](C)CN(c6cccc7c(C8CCC(=O)NC8=O)nn(C)c67)C[C@@H]5C)CC4)ncc3Cl)cnc2n(C(C)C)c1=O (some centres unmarked) [Compound 197a]"
test_readout = "Ymin (5 hr)"
observed = "+++ (30% ≤ Ymin < 50%)"

[[record]]
compound = "CNC(=O)COc1cc2cc(Nc3nc(N4CCC5(CCC(CN6CCC(c7ccc8c(C9CCC(=O)NC9=O)nn(C)c8c7)CC6)CC5)CC4)ncc3Cl)cnc2n(C(C)C)c1=O (centres unmarked) [Compound 237]"
test_readout = "Ymin (5 hr)"
observed = "++++ (Ymin < 30%)"

[[record]]
compound = "CNC(=O)COc1cc2cc(Nc3nc(N4CC5(CC[C@H](Nc6ccc7c(C8CCC(=O)NC8=O)nn(C)c7c6)[C@@H](C(F)(F)F)C5)C4)ncc3Cl)cnc2n(C(C)C)c1=O (relative stereo) [Compound 221b]"
test_readout = "Ymin (5 hr)"
observed = "++++ (Ymin < 30%)"

